So I've got a bunch of compounds here, and I need their Fold change to previous values.
Test System: 14-3-3γ (Homo sapiens, UniProt P61981)
Construct: made in house; host or cells: E. coli NiCo21 (DE3)
Sequence (P61981 1-247): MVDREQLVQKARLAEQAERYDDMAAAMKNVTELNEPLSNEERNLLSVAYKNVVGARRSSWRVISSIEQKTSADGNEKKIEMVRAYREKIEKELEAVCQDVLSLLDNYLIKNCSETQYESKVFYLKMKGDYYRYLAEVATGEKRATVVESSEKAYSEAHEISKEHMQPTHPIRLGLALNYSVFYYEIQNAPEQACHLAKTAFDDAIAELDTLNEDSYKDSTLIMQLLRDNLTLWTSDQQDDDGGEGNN
Assay Details: Fluorescence anisotropy (FA) binary binding study: 14-3-3 titrated to fluorescein-labelled peptide
Details: Table S3; KD / KD of previous peptide; replicate 3
Where a SMILES comes first, the peptide text is derived from it. [ ]: non-standard residue; d: D form. The star is where a group is joined. ξ: configuration not given here. FITC = O=C1OC2(c3ccc(O)cc3Oc3cc(O)ccc32)c2ccc(NC(=S)*)cc21; Phe(4-NO2) = N[C@@H](Cc1ccc([N+](=O)[O-])cc1)C(=O)O; ξAla(4-thiazolyl) = NC(Cc1cscn1)C(=O)O; pS = N[C@@H](COP(=O)(O)O)C(=O)O; β3hS = N[C@@H](CO)CC(=O)O; Nva = CCC[C@H](N)C(=O)O; AEA = NCCOCC(=O)O

CCC[C@H](NC(=O)[C@@H](CCCCN)NC(=O)COCCNC(=S)Nc1ccc2c(c1)C(=O)OC21c2ccc(O)cc2Oc2cc(O)ccc21)C(=O)N[C@@H](Cc1ccc([N+](=O)[O-])cc1)C(=O)NC(Cc1cscn1)C(=O)N[C@@H](COP(=O)(O)O)C(N)=O (some centres unmarked) [2i] ({FITC-AEA}-[dK][Nva][Phe(4-NO2)][ξAla(4-thiazolyl)][pS]-NH2) :: 4,33

Ask: Value lookup for Fold change to previous; key = CCC[C@H](NC(=O)[C@@H](CCCCN)NC(=O)COCCNC(=S)Nc1ccc2c(c1)C(=O)OC21c2ccc(O)cc2Oc2cc(O)ccc21)C(=O)N[C@@H](Cc1ccc([N+](=O)[O-])cc1)C(=O)NC(Cc1cscn1)C(=O)N[C@@H](COP(=O)(O)O)C(=O)N[C@@H](Cc1ccc([N+](=O)[O-])cc1)C(=O)N[C@@H](CO)CC(N)=O (stereo partly drawn) [2g] ({FITC-AEA}-[dK][Nva][Phe(4-NO2)][ξAla(4-thiazolyl)][pS][Phe(4-NO2)][β3hS]-NH2)
Reply: 1,79
